test target: Phosphatidylinositol 4,5-bisphosphate 3-kinase catalytic subunit gamma isoform (Homo sapiens, UniProt P48736)
Sequence (P48736 whole entry, canonical isoform): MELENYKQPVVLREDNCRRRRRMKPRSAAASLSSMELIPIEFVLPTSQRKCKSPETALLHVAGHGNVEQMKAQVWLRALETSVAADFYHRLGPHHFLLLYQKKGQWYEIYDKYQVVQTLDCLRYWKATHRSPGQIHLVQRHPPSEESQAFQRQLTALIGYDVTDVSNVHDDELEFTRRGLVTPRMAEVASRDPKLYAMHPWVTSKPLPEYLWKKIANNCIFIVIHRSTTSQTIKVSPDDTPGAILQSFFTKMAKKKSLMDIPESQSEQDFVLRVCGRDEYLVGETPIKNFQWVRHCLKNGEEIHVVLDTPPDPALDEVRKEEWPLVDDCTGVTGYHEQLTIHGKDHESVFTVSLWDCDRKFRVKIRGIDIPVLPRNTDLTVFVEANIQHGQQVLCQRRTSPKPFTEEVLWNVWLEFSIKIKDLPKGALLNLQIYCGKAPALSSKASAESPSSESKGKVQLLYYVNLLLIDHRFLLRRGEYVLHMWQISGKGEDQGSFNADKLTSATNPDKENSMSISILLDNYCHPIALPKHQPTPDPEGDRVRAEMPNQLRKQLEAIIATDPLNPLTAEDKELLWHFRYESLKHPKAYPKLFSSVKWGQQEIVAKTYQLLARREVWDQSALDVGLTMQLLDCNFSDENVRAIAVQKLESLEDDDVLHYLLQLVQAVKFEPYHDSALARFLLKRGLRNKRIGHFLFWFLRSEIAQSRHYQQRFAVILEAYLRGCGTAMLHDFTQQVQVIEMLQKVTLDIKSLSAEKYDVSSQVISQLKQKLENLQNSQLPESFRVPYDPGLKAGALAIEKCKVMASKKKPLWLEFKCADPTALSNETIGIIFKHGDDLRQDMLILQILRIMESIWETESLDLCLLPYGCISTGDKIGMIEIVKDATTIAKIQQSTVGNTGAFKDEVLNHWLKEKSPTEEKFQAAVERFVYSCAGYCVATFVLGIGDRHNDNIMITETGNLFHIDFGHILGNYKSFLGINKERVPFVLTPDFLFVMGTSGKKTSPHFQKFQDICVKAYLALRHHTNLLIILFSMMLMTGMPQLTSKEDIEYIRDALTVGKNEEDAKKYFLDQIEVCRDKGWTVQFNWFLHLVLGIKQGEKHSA
protocol text: Inhibition of recombinant human PI3Kgamma assessed as reduction in ADP production using Dic8-PIP2 as substrate pre-treated for 15 mins followed by substrate addition measured after 60 mins by ADP-glo assay
pIC50: −log10 of the molar value.
assay readout: pIC50

Some compounds with recorded pIC50:
CNS(=O)(=O)c1cc(-c2sc(Nc3ccc(C(=O)NCCCN(C)C)cn3)nc2C)cc2c1C(=O)N([C@@H](C)C1CC1)C2    8.90
Cc1nc2sc1-c1cc3c(c(c1)S(=O)(=O)NCCCCCNC(=O)c1cccc(n1)N2)C(=O)N([C@@H](C)C1CC1)C3    8.90
CC(=O)Nc1nc(C)c(-c2cc3c(c(S(=O)(=O)N(C)c4ccc(CN(C)C)cc4)c2)C(=O)N([C@@H](C)C2CC2)C3)s1    8.60
CC(=O)Nc1nc(C)c(-c2cc3c(c(S(=O)(=O)Nc4cccc(S(C)(=O)=O)c4)c2)C(=O)N([C@@H](C)C2CC2)C3)s1    8.90

1. CNS(=O)(=O)c1cc(-c2sc(Nc3cccc(C)n3)nc2C)cc2c1C(=O)N([C@@H](C)C1CC1)C2
2. CCN(CC)C(=O)c1cccc(Nc2nc(C)c(-c3cc4c(c(S(=O)(=O)NC)c3)C(=O)N([C@@H](C)C3CC3)C4)s2)n1
3. Cc1nc2sc1-c1cc3c(c(c1)S(=O)(=O)Nc1ccc(cc1)CN(C)CCCNC(=O)c1cccc(n1)N2)C(=O)N([C@@H](C)C1CC1)C3
Exam item: Could you please order the items by pIC50, going from the lowest number to the highest? API: response body holds the labels in the requested order.
Marked response: 3, 2, 1

----------
protocol text: Clearance in rat at 0.5 mg/kg, iv
Assay type: ADME, organism-based
experimental conditions: in vivo
assay readout: clearance (mL/min/kg)

Some compounds with recorded clearance:
Cc1nc2sc1-c1cc3c(c(c1)S(=O)(=O)NCCN(C)CCNC(=O)c1cccc(n1)N2)C(=O)N([C@@H](C)C1CC1)C3    83
Cc1nc(Nc2cccc(N3CCOCC3=O)n2)sc1-c1cc2c(c(S(=O)(=O)NC3COC3)c1)C(=O)N([C@@H](C)C1CC1)C2    136

P. Cc1nc(Nc2cccc(N3CCCC3=O)n2)sc1-c1cc2c(c(S(C)(=O)=O)c1)C(=O)N([C@@H](C)C1CC1)C2
Q. Cc1nc2sc1-c1cc3c(c(c1)S(=O)(=O)NCCOCCNC(=O)c1cccc(n1)N2)C(=O)N([C@@H](C)C1CC1)C3
Exam item: Looking at recorded values for clearance, does P or Q come in lower? I would appreciate it if you answered with the label of your choice.
Marked response: P
(P: 20 mL/min/kg, Q: 110 mL/min/kg)

----------
test target: Phosphatidylinositol 4,5-bisphosphate 3-kinase catalytic subunit gamma isoform (Homo sapiens, UniProt P48736)
protocol text: Inhibition of recombinant human PI3Kgamma assessed as reduction in ADP production using Dic8-PIP2 as substrate pre-treated for 15 mins followed by substrate addition measured after 60 mins by ADP-glo assay
assay readout: IC50 (nM)

Some compounds with recorded IC50:
Cc1nc(-c2cccc(Nc3nc(C)c(-c4cc5c(c(S(C)(=O)=O)c4)C(=O)N([C@@H](C)C4CC4)C5)s3)n2)n(C)n1    1
Cc1nc2sc1-c1cc3c(c(c1)S(=O)(=O)NCCN(C)CCCNC(=O)c1cccc(n1)N2)C(=O)N([C@@H](C)C1CC1)C3    0.794
COCCNC(=O)c1cccc(Nc2nc(C)c(-c3cc4c(c(S(C)(=O)=O)c3)C(=O)N([C@@H](C)C3CC3)C4)s2)n1    0.794
CC(=O)Nc1cccc(Nc2nc(C)c(-c3cc4c(c(S(C)(=O)=O)c3)C(=O)N([C@@H](C)C3CC3)C4)s2)n1    1

1. CC(=O)Nc1nc(C)c(-c2cc3c(c(S(=O)(=O)Nc4ccc(CN(C)C)cc4)c2)C(=O)N([C@@H](C)C2CC2)C3)s1
2. CC(=O)Nc1nc(C)c(-c2cc3c(c(S(=O)(=O)Nc4ccc(S(C)(=O)=O)cc4)c2)C(=O)N([C@@H](C)C2CC2)C3)s1
3. Cc1nc2sc1-c1cc3c(c(c1)S(=O)(=O)NCCN(C)CCNC(=O)c1cccc(n1)N2)C(=O)N([C@@H](C)C1CC1)C3
Exam item: Reorder: IC50, max to min. API: response body holds the labels in the requested order.
Marked response: 1, 3, 2
(1: 2.51 nM, 3: 1.58 nM, 2: 1 nM)

----------
test target: Phosphatidylinositol 4,5-bisphosphate 3-kinase catalytic subunit gamma isoform (Homo sapiens, UniProt P48736)
protocol text: Inhibition of recombinant human PI3Kgamma assessed as reduction in ADP production using Dic8-PIP2 as substrate pre-treated for 15 mins followed by substrate addition measured after 60 mins by ADP-glo assay
pIC50: −log10 of the molar value.
assay readout: pIC50

Some molecules with recorded pIC50:
Cc1nc(Nc2cccc(-c3ocnc3CO)n2)sc1-c1cc2c(c(S(C)(=O)=O)c1)C(=O)N([C@@H](C)C1CC1)C2    9.20
CC(=O)Nc1nc(C)c(-c2cc3c(c(S(=O)(=O)Nc4ccc(C#N)cc4)c2)C(=O)N([C@@H](C)C2CC2)C3)s1    9.00
CC(=O)Nc1nc(C)c(-c2cc3c(c(S(=O)(=O)Nc4ccccc4)c2)C(=O)N([C@@H](C)C2CC2)C3)s1    9.00

P. Cc1nc(Nc2cccc(-c3nc(C)n(C)n3)n2)sc1-c1cc2c(c(S(C)(=O)=O)c1)C(=O)N([C@@H](C)C1CC1)C2
Q. CNS(=O)(=O)c1cc(-c2sc(Nc3cccc(C(=O)NCCCN(C)C)n3)nc2C)cc2c1C(=O)N([C@@H](C)C1CC1)C2
Exam item: Looking at recorded values for pIC50, does P or Q come in lower? I would appreciate it if you answered with the label of your choice.
Marked response: Q
(Q: 8.50, P: 9.00)

----------
protocol text: Distribution coefficient, logD of compound at pH 7.4
Format: physicochemical
experimental conditions: octanol/water
assay readout: logD

Cc1nc(Nc2cccc(N3CCOCC3=O)n2)sc1-c1cc2c(c(S(=O)(=O)NC3COC3)c1)C(=O)N([C@@H](C)C1CC1)C2    3.5
Cc1nc2sc1-c1cc3c(c(c1)S(=O)(=O)NCCOCCNC(=O)c1cccc(n1)N2)C(=O)N([C@@H](C)C1CC1)C3    3.7
Cc1nc2sc1-c1cc3c(c(c1)S(=O)(=O)NCCN(C)CCNC(=O)c1cccc(n1)N2)C(=O)N([C@@H](C)C1CC1)C3    3.9
Cc1nc(Nc2cccc(N3CCCC3=O)n2)sc1-c1cc2c(c(S(C)(=O)=O)c1)C(=O)N([C@@H](C)C1CC1)C2    4.4

----------
test target: Phosphatidylinositol 4,5-bisphosphate 3-kinase catalytic subunit delta isoform (Homo sapiens, UniProt O00329)
Sequence (O00329 whole entry, canonical isoform): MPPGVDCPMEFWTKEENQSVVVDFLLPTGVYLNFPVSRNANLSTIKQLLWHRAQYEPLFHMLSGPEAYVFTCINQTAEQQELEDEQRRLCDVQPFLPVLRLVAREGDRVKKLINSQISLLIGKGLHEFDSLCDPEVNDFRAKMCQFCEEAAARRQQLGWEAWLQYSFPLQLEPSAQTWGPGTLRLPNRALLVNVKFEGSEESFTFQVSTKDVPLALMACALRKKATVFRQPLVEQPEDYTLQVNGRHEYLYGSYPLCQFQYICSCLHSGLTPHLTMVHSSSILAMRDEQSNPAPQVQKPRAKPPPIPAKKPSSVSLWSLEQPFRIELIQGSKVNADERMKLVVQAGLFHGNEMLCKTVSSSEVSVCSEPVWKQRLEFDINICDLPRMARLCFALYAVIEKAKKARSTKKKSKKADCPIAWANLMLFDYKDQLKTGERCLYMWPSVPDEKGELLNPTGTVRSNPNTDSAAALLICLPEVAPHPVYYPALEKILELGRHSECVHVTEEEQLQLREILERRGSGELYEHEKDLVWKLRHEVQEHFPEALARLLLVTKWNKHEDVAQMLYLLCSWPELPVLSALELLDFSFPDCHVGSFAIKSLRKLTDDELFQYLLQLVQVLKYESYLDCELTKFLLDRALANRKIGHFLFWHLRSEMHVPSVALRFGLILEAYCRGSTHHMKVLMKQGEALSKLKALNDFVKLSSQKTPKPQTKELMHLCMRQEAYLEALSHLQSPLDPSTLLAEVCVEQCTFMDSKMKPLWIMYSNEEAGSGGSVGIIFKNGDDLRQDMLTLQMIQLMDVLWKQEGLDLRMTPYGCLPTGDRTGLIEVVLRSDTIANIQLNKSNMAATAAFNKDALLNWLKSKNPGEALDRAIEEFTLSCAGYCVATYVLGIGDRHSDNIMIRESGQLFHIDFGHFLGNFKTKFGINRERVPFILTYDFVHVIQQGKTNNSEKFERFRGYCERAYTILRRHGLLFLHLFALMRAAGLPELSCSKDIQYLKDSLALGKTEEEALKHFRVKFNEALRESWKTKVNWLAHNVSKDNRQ
protocol text: Inhibition of PI3Kdelta in anti-IgM-stimulated human JeKo-1 cells assessed as inhibition of AKT phosphorylation at Ser473 residue incubated for 60 mins by TR-FRET assay
pIC50: −log10 of the molar value.
assay readout: pIC50

Cc1nc(Nc2cccc(N3CCNC3=O)n2)sc1-c1cc2c(c(S(=O)(=O)NC3COC3)c1)C(=O)N([C@@H](C)C1CC1)C2    8.50
Cc1nc(Nc2cccc(N3CCCC3=O)n2)sc1-c1cc2c(c(S(C)(=O)=O)c1)C(=O)N([C@@H](C)C1CC1)C2    8.40
Cc1nc(Nc2cccc(N3CCCCC3=O)n2)sc1-c1cc2c(c(S(C)(=O)=O)c1)C(=O)N([C@@H](C)C1CC1)C2    7.90
Cc1nc2sc1-c1cc3c(c(c1)S(=O)(=O)NCCN(C)CCCNC(=O)c1cccc(n1)N2)C(=O)N([C@@H](C)C1CC1)C3    8.50
CC(=O)Nc1nc(C)c(-c2cc3c(c(S(=O)(=O)Nc4cccc(S(C)(=O)=O)c4)c2)C(=O)N([C@@H](C)C2CC2)C3)s1    7.50
Cc1nc2sc1-c1cc3c(c(c1)S(=O)(=O)Nc1ccc(cc1)CN(C)CCCNC(=O)c1cccc(n1)N2)C(=O)N([C@@H](C)C1CC1)C3    8.80
CC(=O)Nc1nc(C)c(-c2cc3c(c(S(=O)(=O)Nc4ccc(CN(C)C)cc4)c2)C(=O)N([C@@H](C)C2CC2)C3)s1    7.30
Cc1nc2sc1-c1cc3c(c(c1)S(=O)(=O)NCCN(C)CCNC(=O)c1cccc(n1)N2)C(=O)N([C@@H](C)C1CC1)C3    8.50
Cc1nc2sc1-c1cc3c(c(c1)S(=O)(=O)NCCCCCNC(=O)c1cccc(n1)N2)C(=O)N([C@@H](C)C1CC1)C3    8.90
CNS(=O)(=O)c1cc(-c2sc(Nc3cccc(N4CCCOC4=O)n3)nc2C)cc2c1C(=O)N([C@@H](C)C1CC1)C2    8.60

A. Cc1nc(Nc2cccc(N3CCCOC3=O)n2)sc1-c1cc2c(c(S(C)(=O)=O)c1)C(=O)N([C@@H](C)C1CC1)C2
B. Cc1nc2sc1-c1cc3c(c(c1)S(=O)(=O)Nc1ccc(cc1)CN(C)CCCCNC(=O)c1cccc(n1)N2)C(=O)N([C@@H](C)C1CC1)C3
C. CNS(=O)(=O)c1cc(-c2sc(Nc3cccc(N4CCN(C)CC4=O)n3)nc2C)cc2c1C(=O)N([C@@H](C)C1CC1)C2
D. CC(=O)Nc1nc(C)c(-c2cc3c(c(S(=O)(=O)Nc4cccc(C#N)c4)c2)C(=O)N([C@@H](C)C2CC2)C3)s1
Exam item: Could you please order the items by pIC50, going from the lowest number to the highest? API: response body holds the labels in the requested order.
Marked response: D, C, A, B
(D: 6.90, C: 8.20, A: 8.40, B: 9.00)
